Entry source: patent US4656166A

Listed here are compounds together with their documented MIC.
system: Escherichia coli SOL 90; assay: MIC, in vitro dilution method, Escherichia coli SOL 90 (Table III); format: cell-based; settings: SOL90; Escherichia coli SOL 90; dilution method; read-out: MIC
Give the number; µg/mL is assumed, so skip it.

Worked cases, answers included:
* CC(N)C(=O)Nc1nc(C(=O)OCC2=C(C(=O)O)N3C(=O)C(NC(=O)C(=NOC(C)(C)C(=O)O)c4csc(N)n4)C3[S+]([O-])C2)cs1 (stereo not drawn) | 0.5
* NCc1ccc(C(=O)SCC2=C(C(=O)O)N3C(=O)C(NC(=O)C(=NOC4(C(=O)O)CCC4)c4csc(N)n4)C3[S+]([O-])C2)cc1 (stereo not drawn) | 0.5
* CC(C)(ON=C(C(=O)NC1C(=O)N2C(C(=O)O)=C(COC(=O)C3CCN(C(=O)CCCN)CC3)C[S+]([O-])C12)c1csc(N)n1)C(=O)O (stereo not drawn) | 0.25
* CC(CCN)C(=O)OCC1=C(C(=O)O)N2C(=O)C(NC(=O)C(=NOC3(C(=O)O)CCC3)c3csc(N)n3)C2[S+]([O-])C1 (stereo not drawn) | 0.25

stdin: Requested read-out: MIC. Entry: NCC(=O)Nc1cccc(C(=O)SCC2=C(C(=O)O)N3C(=O)C(NC(=O)C(=NOC4(C(=O)O)CCC4)c4csc(N)n4)C3[S+]([O-])C2)c1 (stereo not drawn)
stdout: 2

---

test system: Serrtia liquefaciens SL 1326 S; experiment: MIC on strain not producing beta-lactamase, Serratia liquefaciens SL 1326 S (Table IV); format: cell-based; conditions: SL1326S, not producing beta-lactamases
Measurement kind: MIC (µg/mL)
Express your answer in µg/mL, writing the number without its unit.

Some compounds with recorded MIC:
• Cc1c(CN)cccc1C(=O)SCC1=C(C(=O)O)N2C(=O)C(NC(=O)C(=NOC(C)(C)C(=O)O)c3csc(N)n3)C2[S+]([O-])C1 (stereo not drawn) [compound 42535] = 0.125
• CC(C)(ON=C(C(=O)NC1C(=O)N2C(C(=O)O)=C(CSC(=O)C3CCC(CN)CC3)C[S+]([O-])C12)c1csc(N)n1)C(=O)O (stereo not drawn) [compound 42118] = 0.12

stdin: For the compound NCC(=O)Nc1nc(C(=O)OCC2=C(C(=O)O)N3C(=O)C(NC(=O)C(=NOC4(C(=O)O)CCC4)c4csc(N)n4)C3[S+]([O-])C2)cs1 (stereo not drawn) [42 547] , what MIC is on record?
stdout: 0.125

stdin: What do you get for CC(C)(O/N=C(\C(=O)NC1C(=O)N2C(C(=O)O)=C(COC(=O)c3ccc(NC(=O)CN)cc3)C[S+]([O-])C12)c1csc(N)n1)C(=O)O (stereo not drawn) [42 467] ?
stdout: 0.125

stdin: Quick one: CC(C)(ON=C(C(=O)NC1C(=O)N2C(C(=O)O)=C(CSC(=O)C3CCCNC3)C[S+]([O-])C12)c1csc(N)n1)C(=O)O (stereo not drawn) [compound 42074]
stdout: 0.12

---

Test system: Enterobacter RO 154
Test: MIC, in vitro dilution method, Enterobacter RO 154 (Table III)
Assay type: cell-based
Conditions: RO154; Enterobacter RO 154; dilution method; read-out: MIC
Source text: The products of the invention have been studied as regards their pharmacological properties and, more especially, bacteriostatic action. This has been determined in vitro by the dilution method, and the study was on Gram negative strains. Results, expressed in minimum inhibiting concentrations (MIC-- μg/ml), are collected in the following table (Table III).
Measurement kind: MIC

Known MIC results, listed for orientation:
- CCNCc1ccc(C(=O)OCC2=C(C(=O)O)N3C(=O)C(NC(=O)/C(=N\OC(C)(C)C(=O)O)c4csc(N)n4)C3[S+]([O-])C2)cc1 (stereo not drawn) [42 396]: ≤ 0.125 µg/mL
- CNCc1ccc(C(=O)OCC2=C(C(=O)O)N3C(=O)C(NC(=O)/C(=N\OC4(C(=O)O)CCC4)c4csc(N)n4)C3[S+]([O-])C2)cc1 (stereo not drawn) [42 464]: ≤ 0.125 µg/mL

stdin: State the recorded MIC for this entry: Nc1nc(/C(=N/OC2(C(=O)O)CCC2)C(=O)NC2C(=O)N3C(C(=O)O)=C(COC(=O)CC4CCCNC4)C[S+]([O-])C23)cs1 (stereo not drawn) [42 472]
stdout: ≤ 0.125 µg/mL
